# TESTED ON: T1, yeast small ubiquitin-like modifier protein (yeast, UniProt Q12306 3-98 = SUMO)
# T1 construct: GST fusion in most phage ELISAs, His-tagged or tag-cleaved elsewhere; also called ySUMO; yeast SUMO
# T1 sequence (Q12306 3-98 limits assumed): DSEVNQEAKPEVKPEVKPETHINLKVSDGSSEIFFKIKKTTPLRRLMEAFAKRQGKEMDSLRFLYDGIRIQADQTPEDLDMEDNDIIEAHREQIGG
# EXPERIMENT NOTES: SPR
READOUT NAME: Kd (nM)

# BINDER, RESULT UNITS, OBS VALUE
data = [
    ("ySMB-5 (designed binder, variable loops only; library YSGW) VSSVPTKLEVVAATPTSLLISWDAPANSVSYYRITYGETGGNSPVQEFTVPGSSSTATISGLSPGVDYTITVYAYEWYGWGWTYSPISINYRT", "nM", 100),
    ("ySMB-6 (designed binder, variable loops only; library YSGW) VSSVPTKLEVVAATPTSLLISWDASSSSVSYYRITYGETGGNSPVQEFTVPSYSSTATISGLSPGVDYTITVYAYWEFEYGYWSYSPISINYRT", "nM", 166),
    ("ySMB-8 (designed binder, variable loops only; library YSGW) VSSVPTKLEVVAATPTSLLISWDAYVGYGSSVAYYRITYGETGGNSPVQEFTVPGSSSTATISGLSPGVDYTITVYAYYYEGDDLYSSMSPISINYRT", "nM", 350),
    ("ySMB-4 (designed binder, variable loops only; library YSGW) VSSVPTKLEVVAATPTSLLISWDAPWAYSQSVAYYRITYGETGGNSPVQEFTVPGSSSTATISGLSPGVDYTITVYAYYGTPWGEGWYSWSPISINYRT", "nM", 210),
    ("ySMB-7 (designed binder, variable loops only; library YSGW) VSSVPTKLEVVAATPTSLLISWDASSSSVSYYRITYGETGGNSPVQEFTVPGSSSTATISGLSPGVDYTITVYAYQEWSYGWSSESPISINYRT", "nM", 800),
    ("ySMB-2 (designed binder) VSSVPTKLEVVAATPTSLLISWDASSSSVSYYRITYGETGGNSPVQEFTVPGSSSTATISGLSPGVDYTITVYAYWTYEWGYMYDSPISINYRT", "nM", 45),
]
